The following compounds are listed with their measured pIC50 values.
Target Of Assay: Gag-Pol polyprotein [588-1027]/[588-1147] (Human immunodeficiency virus 1, UniProt P04585)
Construct: 588-1027; 588-1147
Assay Procedure: HIV-1 RT Assay
pIC50: −log10 of the molar value.
Reported Property: pIC50

1) CC1(C)C(=O)NC(SC2CCCCC2)=N/C1=C/c1ccccc1 = < 5.00
2) CC1(C)C(=O)NC(SC2CCCC2)=N/C1=C/c1ccccc1 = < 5.00
